Recorded values, source patent EP0308983A2.

- methodSummary: Paramagnetic relaxation properties in human plasma at 37°C
- Type: physicochemical
- measurementContext: versus GdDTPA
Measured T₂ relaxivity in plasma, fold greater than GdDTPA, listed per entry for reference.
outcomeMeasure: T₂ relaxivity in plasma, fold greater than GdDTPA (fold)

smilesinput=C[C@H](N)C(=O)O.C[C@H](N)C(=O)O.O.O.[Cl-].[Cl-].[Mn+2] readoutunit=fold endpointresult=11.9
smilesinput=CC(C)C[C@H](N)C(=O)O.CC(C)C[C@H](N)C(=O)O.O.O.[Cl-].[Cl-].[Mn+2] readoutunit=fold endpointresult=12.1
smilesinput=N[C@@H](CC(=O)O)C(=O)O.N[C@@H](CC(=O)O)C(=O)O.O.O.[Cl-].[Cl-].[Mn+2] readoutunit=fold endpointresult=12.8
smilesinput=O.O.O=C(O)[C@@H]1C[C@@H](O)CN1.O=C(O)[C@@H]1C[C@@H](O)CN1.[Cl-].[Cl-].[Mn+2] readoutunit=fold endpointresult=11.9
smilesinput=N[C@@H](Cc1ccccc1)C(=O)O.N[C@@H](Cc1ccccc1)C(=O)O.O.O.[Cl-].[Cl-].[Mn+2] readoutunit=fold endpointresult=12.4
smilesinput=N=C(N)NCCC[C@H](N)C(=O)O.N=C(N)NCCC[C@H](N)C(=O)O.O.O.[Cl-].[Cl-].[Mn+2] readoutunit=fold endpointresult=7.9
smilesinput=C[NH2+]CC(=O)[O-].C[NH2+]CC(=O)[O-].O.O.[Cl-].[Cl-].[Mn+2] readoutunit=fold endpointresult=11.5
smilesinput=NC(=O)C[C@H]([NH3+])C(=O)[O-].NC(=O)C[C@H]([NH3+])C(=O)[O-].O.O.[Cl-].[Cl-].[Mn+2] readoutunit=fold endpointresult=12.2
smilesinput=N[C@@H](CS)C(=O)O.N[C@@H](CS)C(=O)O.O.O.[Cl-].[Cl-].[Mn+2] readoutunit=fold endpointresult=11.9
